Where do these numbers come from? They come from patent US20210332115A1.

Recorded koff values for a group of binders are listed next.
- testSystem: T1, Homo sapiens factor Bb protein (human, UniProt P00751 260-764)
- T1 construct: Bought from CompTech (A155); also called complement factor Bb; human factor Bb
- T1 sequence (P00751 260-764 limits assumed): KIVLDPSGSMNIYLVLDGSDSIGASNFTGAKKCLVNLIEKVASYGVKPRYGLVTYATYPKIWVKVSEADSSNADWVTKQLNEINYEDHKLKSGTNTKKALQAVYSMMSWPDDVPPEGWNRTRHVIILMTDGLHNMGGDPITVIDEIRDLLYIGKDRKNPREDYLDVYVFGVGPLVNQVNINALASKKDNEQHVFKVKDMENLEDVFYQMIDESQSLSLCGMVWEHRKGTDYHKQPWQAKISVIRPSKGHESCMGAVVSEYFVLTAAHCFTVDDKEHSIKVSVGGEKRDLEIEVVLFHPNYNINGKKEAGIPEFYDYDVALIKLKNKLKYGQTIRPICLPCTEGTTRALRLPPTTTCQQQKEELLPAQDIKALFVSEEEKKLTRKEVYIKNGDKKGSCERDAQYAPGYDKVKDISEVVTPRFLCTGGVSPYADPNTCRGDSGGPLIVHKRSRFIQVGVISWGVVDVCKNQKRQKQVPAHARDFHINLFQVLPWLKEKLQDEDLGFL
- testDetails: SPR single cycle kinetics, IgG on Protein A chip, factor Bb analyte
Answer with the number, then the unit.

VH2/Vκ2 (antibody, V domains shown) VH: EVQLVESGGGLVKPGGSLRLSCAASGFTFSNYAMSWVRQAPGKGLEWVATISNRGSYTYYPDSVKGRFTISRDNAKNSLYLQMNSLRAEDTALYYCARERPMDYWGQGTLVTVSS VL: DIVMTQSPSTLSASVGDRVTITCKASQDVGTAVAWYQQKPGQPPKLLIYWASTRHTGVPDRFTGSGSGTDFTLTISSLQAEDFAVYFCHQHSSNPLTFGQGTKLEIK = 0.00326 s⁻¹
VH3/Vκ4 (antibody, V domains shown) VH: EVQLVESGGGLVKPGGSLRLSCAASGFTFSNYAMSWVRQAPGKGLEWVATISNRGSYTYYADSVKGRFTISRDNAKNSLYLQMNSLRAEDTALYYCARERPMDYWGQGTLVTVSS VL: DIQMTQSPSTLSASVGDRVTITCRASQDVGTAVAWYQQKPGQPPKLLIYWASTRHTGVPDRFSGSGSGTDFTLTISSLQAEDFAVYYCHQHSSNPLTFGQGTKLEIK = 0.0046 s⁻¹
VH3/Vκ3 (antibody, V domains shown) VH: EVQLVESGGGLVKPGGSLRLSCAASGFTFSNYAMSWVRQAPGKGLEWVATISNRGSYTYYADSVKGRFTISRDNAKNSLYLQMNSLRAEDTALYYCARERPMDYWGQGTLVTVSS VL: DIQMTQSPSTLSASVGDRVTITCKASQDVGTAVAWYQQKPGQPPKLLIYWASTRHTGVPDRFSGSGSGTDFTLTISSLQAEDFAVYFCHQHSSNPLTFGQGTKLEIK = 0.00329 s⁻¹
VH0/Vκ1 (control) (antibody, V domains shown) VH: EVQLVESGGALVKPGGSLKLSCAASGFTFSNYAMSWVRQTPEKRLEWVATISNRGSYTYYPDSVKGRFTISRDNAKNTLYLQMSSLRSEDTALYYCARERPMDYWGQGTSVTVSS VL: DIVMTQSPSFLSASVGDRVTITCKASQDVGTAVAWYQQKPGQPPKLLIYWASTRHTGVPDRFTGSGSGTDFTLTISSLQSEDFAVYFCHQHSSNPLTFGQGTKLEIK = 0.00157 s⁻¹

Alright, here's another binder for you.
// koff lookup, binder = VH3/Vκ1 (antibody, V domains shown) VH: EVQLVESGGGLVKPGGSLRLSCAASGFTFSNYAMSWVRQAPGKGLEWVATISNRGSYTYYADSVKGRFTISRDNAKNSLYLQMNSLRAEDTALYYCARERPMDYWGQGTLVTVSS VL: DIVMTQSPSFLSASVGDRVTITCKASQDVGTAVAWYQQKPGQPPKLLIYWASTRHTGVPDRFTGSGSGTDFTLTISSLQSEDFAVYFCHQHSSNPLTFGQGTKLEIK , result: 0.00404 s⁻¹
